Overview of reported inhibition at 10 µM across a group of compounds:
# experimental_target: KDR (Homo sapiens, UniProt P35968)
# Construct: expressed in transfected cells; host or cells: CHO cells
# Sequence (P35968 20-1356): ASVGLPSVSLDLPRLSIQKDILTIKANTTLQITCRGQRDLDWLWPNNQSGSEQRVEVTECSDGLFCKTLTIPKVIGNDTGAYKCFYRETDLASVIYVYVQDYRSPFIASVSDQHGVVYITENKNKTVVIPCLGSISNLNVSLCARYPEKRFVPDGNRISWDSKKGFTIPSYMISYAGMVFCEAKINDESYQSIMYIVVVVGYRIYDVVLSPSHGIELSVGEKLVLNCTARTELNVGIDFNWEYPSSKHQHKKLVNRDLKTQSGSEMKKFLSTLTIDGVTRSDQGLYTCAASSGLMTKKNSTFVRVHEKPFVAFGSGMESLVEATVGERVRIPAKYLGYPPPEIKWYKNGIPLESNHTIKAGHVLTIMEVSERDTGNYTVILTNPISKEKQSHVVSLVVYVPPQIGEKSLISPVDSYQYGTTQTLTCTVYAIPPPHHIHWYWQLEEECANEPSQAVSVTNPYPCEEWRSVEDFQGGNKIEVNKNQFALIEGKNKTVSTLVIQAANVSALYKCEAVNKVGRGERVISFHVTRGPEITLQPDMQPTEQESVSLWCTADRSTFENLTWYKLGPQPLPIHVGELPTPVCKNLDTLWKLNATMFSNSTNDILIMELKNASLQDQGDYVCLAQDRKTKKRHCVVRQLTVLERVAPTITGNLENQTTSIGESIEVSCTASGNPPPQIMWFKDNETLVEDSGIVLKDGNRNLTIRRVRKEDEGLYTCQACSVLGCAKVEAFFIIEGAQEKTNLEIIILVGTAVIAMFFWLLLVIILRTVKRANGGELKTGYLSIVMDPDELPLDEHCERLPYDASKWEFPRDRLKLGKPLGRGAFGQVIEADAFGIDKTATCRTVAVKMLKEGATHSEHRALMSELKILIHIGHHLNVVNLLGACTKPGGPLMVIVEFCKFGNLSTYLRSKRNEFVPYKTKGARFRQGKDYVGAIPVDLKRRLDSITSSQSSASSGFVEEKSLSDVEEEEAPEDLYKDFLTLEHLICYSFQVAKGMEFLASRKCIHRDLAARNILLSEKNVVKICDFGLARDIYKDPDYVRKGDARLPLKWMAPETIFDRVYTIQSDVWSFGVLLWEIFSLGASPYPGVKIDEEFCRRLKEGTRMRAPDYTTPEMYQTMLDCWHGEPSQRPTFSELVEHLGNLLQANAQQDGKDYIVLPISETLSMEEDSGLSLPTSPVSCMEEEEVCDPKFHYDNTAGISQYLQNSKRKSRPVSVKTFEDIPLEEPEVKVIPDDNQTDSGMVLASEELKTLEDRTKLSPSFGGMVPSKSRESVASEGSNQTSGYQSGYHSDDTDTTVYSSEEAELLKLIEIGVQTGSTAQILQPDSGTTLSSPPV
# protocol_summary: Inhibitory activity against KDR (VEGF-R2), in vitro data of Examples 170 and 207
# Assay type: biochemical
# measurement_context: 10 μM; Examples 1 to 169; read-out: KDR inhibition at 10 μM

query_smiles	inhibition at 10 µM
COc1cc(C)c(NC(=O)Nc2cc(Nc3ccc(N4CCN(C)CC4)cc3)ncn2)cc1OC	67 to 100%
COc1ccc(Cl)cc1NC(=O)Nc1cc(Nc2ccc(N3CCN(C)CC3)cc2)ncn1	67 to 100%
CN(C(=O)Nc1c(Cl)cccc1Cl)c1cc(Nc2cccc(Cl)c2)ncn1	67 to 100%

Kindly review the next compound as well.
Entry Cc1cccc(C)c1NC(=O)N(C)c1cc(Nc2cccc(Cl)c2)ncn1 has what inhibition at 10 µM?
67 to 100%

###

# experimental_target: Tek (Homo sapiens)
# Construct: amino acids 773-1124 of the cytoplasmic kinase domain of human Tek, N-terminally fused to GST; made in house; host or cells: Sf9 insect cells (baculovirus)
# Sequence (Q02763 773-1124): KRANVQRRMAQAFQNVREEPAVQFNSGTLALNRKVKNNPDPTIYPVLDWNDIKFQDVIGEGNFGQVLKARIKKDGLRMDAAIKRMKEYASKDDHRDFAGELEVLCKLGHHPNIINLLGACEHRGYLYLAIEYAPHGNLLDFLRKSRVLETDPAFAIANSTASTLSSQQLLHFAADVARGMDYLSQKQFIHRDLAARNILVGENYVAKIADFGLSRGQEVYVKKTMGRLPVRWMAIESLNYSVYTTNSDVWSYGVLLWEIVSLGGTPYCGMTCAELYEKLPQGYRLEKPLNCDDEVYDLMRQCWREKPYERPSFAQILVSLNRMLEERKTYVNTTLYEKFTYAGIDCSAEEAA
# protocol_summary: Recombinant GST-Tek (Tie-2) tyrosine kinase assay (33P into poly(Glu,Tyr))
# Format: biochemical
# measurement_context: Examples 1 to 169
Structures can show the parent of a compound that is named as a salt.
test_readout: inhibition at 10 µM

Please review the entries below; each comes with its answer.
compound	observed
CN(C(=O)Nc1c(Cl)cccc1Cl)c1cc(Nc2ccc(F)cc2F)ncn1 [Example 118]	12 to 100%
COc1cc(NC(=O)Nc2cc(Nc3cccc(N4CCN(C)CC4)c3)ncn2)c(Cl)c(OC)c1 [Example 41]	12 to 100%
CN1CCC(COc2ccc(Nc3cc(NC(=O)Nc4c(Cl)cccc4Cl)ncn3)cc2)CC1 [Example 71]	12 to 100%
CCN(CC)CCOc1ccc(Nc2cc(N(C)C(=O)Nc3c(Cl)c(OC)cc(OC)c3Cl)ncn2)cc1 [Example 152]	12 to 100%
O=C(Nc1cc(Nc2ccc(OCCCN3CCOCC3)cc2)ncn1)Nc1ccccc1Cl [Example 125, bis-hydrochloride Salt]	12 to 100%

# query: inhibition at 10 µM of entry CCN(CC)CCOc1ccc(Nc2cc(NC(=O)Nc3cc(OC)cc(OC)c3Cl)ncn2)cc1 [Example 42]
12 to 100%

Given the compound COc1cc(OC)c(Cl)c(NC(=O)N(C)c2cc(Nc3cccc(CN4CCN(C(C)C)CC4)c3)ncn2)c1Cl [Example 161] , what is its reported inhibition at 10 µM?
12 to 100%

Would you mind telling me what inhibition at 10 µM value was observed for CN1CCN(c2ccc(Nc3cc(NC(=O)Nc4cc(Cl)cc(Cl)c4)ncn3)cc2)CC1 [Example 10] ?
12 to 100%

Look at this compound and give its reported inhibition at 10 µM. O=C(Nc1ccccc1)Nc1cc(Nc2cccc(Cl)c2)ncn1 [Example 141]
12 to 100%

Request the reported inhibition at 10 µM associated with COc1cc(NC(=O)N(C)c2cc(Nc3ccc(N4CCN(C)CC4)cc3)ncn2)cc(OC)c1 [Example 47]
12 to 100%

May I ask what inhibition at 10 µM has been recorded for O=C(Nc1cc(Nc2ccc(OCCN3CCOCC3)cc2)ncn1)Nc1ccccc1Br [Example 97] ?
12 to 100%

Given COc1ccc(NC(=O)Nc2cc(Nc3ccc(N4CCN(C)CC4)cc3)ncn2)c(OC)c1 [Example 16] , state its recorded inhibition at 10 µM.
12 to 100%

State the recorded inhibition at 10 µM for this entry: COc1cc(OC)c(Cl)c(NC(=O)N(C)c2cc(Nc3ccc(OCCN4CCCC4)cc3)ncn2)c1Cl [Example 148]
12 to 100%

Quick check: inhibition at 10 µM of CCN(C(=O)Nc1c(Cl)c(OC)cc(OC)c1Cl)c1cc(Nc2cccc(CN(C)C)c2)ncn1 [Example 151] ?
12 to 100%

Item under review: CCN1CCN(Cc2cccc(Nc3cc(N(C)C(=O)Nc4c(Cl)c(OC)cc(OC)c4Cl)ncn3)c2)CC1 [Example 150] . Reported inhibition at 10 µM?
12 to 100%

Given COc1cc(OC)c(Cl)c(NC(=O)N(C)c2cc(Nc3ccc(C)nc3C)ncn2)c1Cl [Example 153] , state its recorded inhibition at 10 µM.
12 to 100%

###

FGFR35 (Homo sapiens) data, read-out IC50
Sequence (P22607 23-806): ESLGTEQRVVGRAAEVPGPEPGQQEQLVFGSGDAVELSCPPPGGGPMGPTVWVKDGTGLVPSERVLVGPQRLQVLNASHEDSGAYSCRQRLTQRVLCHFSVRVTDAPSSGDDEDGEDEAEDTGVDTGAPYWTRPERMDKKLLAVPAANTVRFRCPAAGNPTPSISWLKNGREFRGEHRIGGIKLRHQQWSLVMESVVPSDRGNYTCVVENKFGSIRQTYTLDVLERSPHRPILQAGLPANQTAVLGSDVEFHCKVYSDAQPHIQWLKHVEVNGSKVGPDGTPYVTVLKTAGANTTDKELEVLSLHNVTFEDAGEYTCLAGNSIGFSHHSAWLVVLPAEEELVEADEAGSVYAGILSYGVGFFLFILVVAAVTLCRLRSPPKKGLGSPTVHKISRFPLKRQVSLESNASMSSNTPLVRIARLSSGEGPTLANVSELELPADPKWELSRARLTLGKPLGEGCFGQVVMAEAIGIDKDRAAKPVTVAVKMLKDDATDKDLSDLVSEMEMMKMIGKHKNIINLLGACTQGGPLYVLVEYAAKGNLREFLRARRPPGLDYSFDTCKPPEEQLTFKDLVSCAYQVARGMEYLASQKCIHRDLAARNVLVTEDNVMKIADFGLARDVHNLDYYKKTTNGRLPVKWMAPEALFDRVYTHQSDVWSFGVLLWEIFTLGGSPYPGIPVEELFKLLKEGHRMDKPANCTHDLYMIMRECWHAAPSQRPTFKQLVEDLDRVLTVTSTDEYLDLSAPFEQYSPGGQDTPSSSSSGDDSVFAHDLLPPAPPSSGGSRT
test_readout: IC50 (nM)

I. Cc1ccc(NC(=O)c2cccc(C(F)(F)F)c2)cc1NC(=O)N(CCCN1CCCC1=O)c1cc(N)ncn1
II. Cc1ccc(NC(=O)c2cccc(C(F)(F)F)c2)cc1NC(=O)N(CCN1CCOCC1)c1cc(N)ncn1
Kindly compare I with II and tell me which has the lower IC50 figure. Lab log: write the label of the selected item as the result.
I
(I: 16 nM, II: 65 nM)

###

Listing: inhibition at 10 µM of selected compounds
# experimental_target: KDR (Homo sapiens)
# Construct: expressed in transfected cells; host or cells: CHO cells
# protocol_summary: Inhibitory activity against KDR (VEGF-R2), in vitro data of Examples 170 and 207
# Type: biochemical
# measurement_context: 10 μM; Examples 1 to 169; read-out: KDR inhibition at 10 μM

Look over these answered cases.
compound	inhibition at 10 µM
COc1ccc(Cl)c(NC(=O)Nc2cc(Nc3cccc(N4CCN(C)CC4)c3)ncn2)c1 [Example 29]	67 to 100%
CN(C(=O)Nc1c(Cl)cccc1Cl)c1cc(Nc2cccc(C(F)(F)F)c2)ncn1 [Example 113]	67 to 100%
CN(C)c1cccc(Nc2cc(NC(=O)Nc3c(Cl)cccc3Cl)ncn2)c1 [Example 119]	67 to 100%

Here is the next item to consider.
Given COc1cc(NC(=O)Nc2cc(Nc3ccc(N4CCN(C)CC4)cc3)ncn2)c(Cl)c(OC)c1 [Example 40] , state its recorded inhibition at 10 µM.
67 to 100%

###

# experimental_target: KDR (Homo sapiens, UniProt P35968)
# Construct: expressed in transfected cells; host or cells: CHO cells
# protocol_summary: Inhibitory activity against KDR (VEGF-R2), in vitro data of Examples 170 and 207
# Format: biochemical
# measurement_context: 10 μM; Examples 1 to 169; read-out: KDR inhibition at 10 μM
test_readout: inhibition at 10 µM

Solved cases (4 shown):
query_smiles	observed
CN(C(=O)Nc1c(Cl)cccc1Cl)c1cc(Nc2ccc(C(C)(C)O)cc2)ncn1	67 to 100%
COc1cc(OC)c(Cl)c(NC(=O)N(C)c2cc(Nc3cccc(CN4CCN(C(C)C)CC4)c3)ncn2)c1Cl	67 to 100%
CCN(C(=O)Nc1c(Cl)c(OC)cc(OC)c1Cl)c1cc(Nc2ccc(OC3CCN(C)CC3)cc2)ncn1	67 to 100%
COc1cc(OC)c(Cl)c(NC(=O)N(C)c2cc(Nc3ccc(N4CCN(C)CC4)cc3)ncn2)c1Cl	67 to 100%

Okay, now this compound:
Value lookup for inhibition at 10 µM; key = O=C(Nc1cc(Nc2ccc(OCCCN3CCOCC3)cc2)ncn1)Nc1ccccc1Br
67 to 100%

###

# experimental_target: KDR (Homo sapiens, UniProt P35968)
# Construct: expressed in transfected cells; host or cells: CHO cells
# protocol_summary: Inhibitory activity against KDR (VEGF-R2), in vitro data of Examples 170 and 207
# Format: biochemical
# measurement_context: 10 μM; Examples 1 to 169; read-out: KDR inhibition at 10 μM
test_readout: inhibition at 10 µM

query_smiles	experimental_target	test_readout	observed
COc1cc(NC(=O)N(C)c2cc(Nc3ccccc3)ncn2)c(Cl)c(OC)c1	KDR (Homo sapiens, UniProt P35968)	inhibition at 10 µM	67 to 100%

Using the record for COc1cc(NC(=O)N(C)c2cc(Nc3cccc(OCCN(C)C)c3)ncn2)c(Cl)c(OC)c1 , report its inhibition at 10 µM.
67 to 100%

What measured inhibition at 10 µM goes with O=C(Nc1cc(Nc2ccc(OCCN3CCOCC3)cc2)ncn1)Nc1ccccc1Br ?
67 to 100%

Using the record for O=C(Nc1cc(Nc2ccc(OCCN3CCOCC3)cc2)ncn1)Nc1ccccc1Cl , report its inhibition at 10 µM.
67 to 100%

###

# experimental_target: KDR (Homo sapiens)
# Construct: expressed in transfected cells; host or cells: CHO cells
# protocol_summary: Inhibitory activity against KDR (VEGF-R2), in vitro data of Examples 170 and 207
# Type: biochemical
# measurement_context: 10 μM; Examples 171 to 206; read-out: KDR inhibition at 10 μM
Recorded inhibition at 10 µM, one value per entry.

Solved entries (count: 3):
query_smiles	observed
Cc1ccc(NC(=O)c2cccc(C(F)(F)F)c2)cc1NC(=O)N(Cc1cccs1)c1cc(Nc2ccc(N3CCN(C)CC3)cc2)ncn1	87 to 100%
CCN(CC)CCOc1ccc(Nc2cc(N(C)C(=O)Nc3cc(NC(=O)c4cccc(C(F)(F)F)c4)ccc3C)ncn2)cc1	87 to 100%
Cc1ccc(NC(=O)c2ccc(CN3CCN(C)CC3)c(C(F)(F)F)c2)cc1NC(=O)N(C)c1cc(Nc2ccccc2)ncn1	87 to 100%

Value lookup for inhibition at 10 µM; key = Cc1ccc(C(=O)Nc2ccc(CN3CCN(C)CC3)c(C(F)(F)F)c2)cc1NC(=O)N(C)c1cc(N)ncn1
87 to 100%

Which inhibition at 10 µM value is on record for Cc1ccc(NC(=O)c2cccc(C(F)(F)F)c2)cc1NC(=O)N(C)c1cc(Nc2ccc(N3CCN(C)CC3)cc2)ncn1 ?
87 to 100%

Query: inhibition at 10 µM; subject: CNc1cc(NC(=O)Nc2cc(NC(=O)c3cccc(C(F)(F)F)c3)ccc2C)ncn1
87 to 100%
